# targetEntity: TPL2 (Homo sapiens (Human), UniProt P41279)
# Sequence (P41279 whole entry, species assumed): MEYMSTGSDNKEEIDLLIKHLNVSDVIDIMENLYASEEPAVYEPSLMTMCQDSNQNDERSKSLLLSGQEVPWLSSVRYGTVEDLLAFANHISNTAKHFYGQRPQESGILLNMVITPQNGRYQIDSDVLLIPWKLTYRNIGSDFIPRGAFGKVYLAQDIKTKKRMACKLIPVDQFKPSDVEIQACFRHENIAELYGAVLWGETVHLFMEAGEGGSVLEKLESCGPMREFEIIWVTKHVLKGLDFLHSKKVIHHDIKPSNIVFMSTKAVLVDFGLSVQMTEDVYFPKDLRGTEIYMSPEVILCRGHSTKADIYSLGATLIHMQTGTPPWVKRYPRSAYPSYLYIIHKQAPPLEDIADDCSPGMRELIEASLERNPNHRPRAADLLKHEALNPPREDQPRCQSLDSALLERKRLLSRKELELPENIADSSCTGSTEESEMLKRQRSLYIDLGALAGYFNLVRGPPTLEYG
measurementKind: IC50 (µM)
Reply with just the number (in µM).

// fetch TPL2 (Homo sapiens (Human), UniProt P41279) IC50 for Clc1nc(NCc2ccccn2)c2c(-c3ccccc3)cccc2n1 [Example 19]
11.9

###

# targetEntity: CK2A2 (Homo sapiens (Human), UniProt P19784)
# Sequence (P19784 whole entry, species assumed): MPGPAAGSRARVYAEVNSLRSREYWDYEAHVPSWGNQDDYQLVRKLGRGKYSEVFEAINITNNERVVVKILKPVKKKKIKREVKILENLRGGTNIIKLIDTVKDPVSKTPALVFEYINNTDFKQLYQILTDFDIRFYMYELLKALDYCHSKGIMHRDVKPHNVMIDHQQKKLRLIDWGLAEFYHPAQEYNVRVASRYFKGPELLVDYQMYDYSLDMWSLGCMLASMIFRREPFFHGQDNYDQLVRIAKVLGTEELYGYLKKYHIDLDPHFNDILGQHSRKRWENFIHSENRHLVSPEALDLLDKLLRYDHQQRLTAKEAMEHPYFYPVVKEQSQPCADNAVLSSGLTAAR
measurementKind: IC50
Returns: string containing the numeric result and its unit.

// fetch CK2A2 (Homo sapiens (Human), UniProt P19784) IC50 for Clc1nc(NCc2ccccn2)c2c(-c3ccccc3)cccc2n1
25.5 µM

###

# targetEntity: JAK2 (Homo sapiens (Human))
# Sequence (O60674 whole entry, species assumed): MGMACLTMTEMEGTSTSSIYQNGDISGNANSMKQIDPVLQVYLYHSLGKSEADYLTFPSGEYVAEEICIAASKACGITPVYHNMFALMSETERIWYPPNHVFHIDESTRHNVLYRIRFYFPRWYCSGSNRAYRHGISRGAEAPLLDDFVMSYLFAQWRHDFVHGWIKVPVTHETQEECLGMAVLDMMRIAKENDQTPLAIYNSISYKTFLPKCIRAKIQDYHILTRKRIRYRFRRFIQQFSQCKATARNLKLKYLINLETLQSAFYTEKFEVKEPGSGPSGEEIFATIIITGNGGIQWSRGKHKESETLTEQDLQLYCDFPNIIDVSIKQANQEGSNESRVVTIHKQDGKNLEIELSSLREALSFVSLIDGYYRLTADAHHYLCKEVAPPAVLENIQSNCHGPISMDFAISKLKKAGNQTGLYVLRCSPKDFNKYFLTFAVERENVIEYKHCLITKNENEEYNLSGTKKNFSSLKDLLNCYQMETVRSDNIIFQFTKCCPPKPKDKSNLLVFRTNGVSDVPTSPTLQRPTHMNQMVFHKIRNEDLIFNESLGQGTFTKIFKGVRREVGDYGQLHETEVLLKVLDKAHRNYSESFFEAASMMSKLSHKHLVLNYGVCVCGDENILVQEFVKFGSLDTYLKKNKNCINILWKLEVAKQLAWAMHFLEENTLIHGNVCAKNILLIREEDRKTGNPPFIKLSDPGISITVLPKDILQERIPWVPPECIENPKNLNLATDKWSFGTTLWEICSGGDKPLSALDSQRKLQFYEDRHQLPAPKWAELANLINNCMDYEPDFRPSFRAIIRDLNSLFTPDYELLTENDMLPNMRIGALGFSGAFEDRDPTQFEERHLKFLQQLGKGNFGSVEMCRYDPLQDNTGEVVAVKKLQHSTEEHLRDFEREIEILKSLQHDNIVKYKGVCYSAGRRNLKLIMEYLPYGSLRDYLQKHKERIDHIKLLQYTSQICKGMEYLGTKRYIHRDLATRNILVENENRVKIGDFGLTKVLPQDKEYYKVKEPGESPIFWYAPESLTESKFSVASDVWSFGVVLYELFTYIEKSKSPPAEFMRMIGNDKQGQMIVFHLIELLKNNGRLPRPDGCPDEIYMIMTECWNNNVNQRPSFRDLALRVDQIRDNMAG
measurementKind: IC50 (µM)
Reply with just the number (in µM).

Clc1nc(NCc2ccccn2)c2c(-c3ccccc3)cccc2n1 [Example 19] :: 17.8

Query compound follows.
Form field: reported IC50 of c1ccc(-c2cccc3nc(-c4cncnc4)nc(NCc4ccccn4)c23)cc1 [Example 1]
23.9

###

# targetEntity: PIM1 (Homo sapiens (Human), UniProt P11309)
# Sequence (P11309 whole entry, species assumed): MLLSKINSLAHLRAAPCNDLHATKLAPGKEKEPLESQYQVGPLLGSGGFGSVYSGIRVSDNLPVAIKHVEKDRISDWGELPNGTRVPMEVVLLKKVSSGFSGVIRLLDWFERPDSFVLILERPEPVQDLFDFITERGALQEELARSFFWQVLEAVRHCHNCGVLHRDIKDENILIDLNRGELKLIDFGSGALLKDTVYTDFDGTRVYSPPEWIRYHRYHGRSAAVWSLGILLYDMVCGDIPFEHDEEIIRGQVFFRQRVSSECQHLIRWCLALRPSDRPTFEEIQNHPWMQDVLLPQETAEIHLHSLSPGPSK
# protocolText: Caliper Kinase Assay
# Type: biochemical
# setupConditions: ATP at Km, peptide 1.5 uM; third section of Table 4; read-out: LLE_PIM1 (IC50)
measurementKind: IC50
Returns: string containing the numeric result and its unit.

// fetch PIM1 (Homo sapiens (Human), UniProt P11309) IC50 for Clc1nc(NCc2ccccn2)c2c(-c3ccccc3)cccc2n1 [Example 19]
33.8 µM

###

# targetEntity: PIM1 (Homo sapiens (Human), UniProt P11309)
# protocolText: Caliper Kinase Assay
# Type: biochemical
# setupConditions: ATP at Km, peptide 1.5 uM; first section of Table 4; read-out: LLE PIM1 (IC50)
measurementKind: IC50 (µM)
Reply with just the number (in µM).

// fetch PIM1 (Homo sapiens (Human), UniProt P11309) IC50 for Clc1nc(NCc2ccccn2)c2c(-c3ccccc3)cccc2n1 [Example 19]
33.8

###

# targetEntity: TAK1 (Homo sapiens (Human), UniProt O43318)
# Sequence (O43318 1-303): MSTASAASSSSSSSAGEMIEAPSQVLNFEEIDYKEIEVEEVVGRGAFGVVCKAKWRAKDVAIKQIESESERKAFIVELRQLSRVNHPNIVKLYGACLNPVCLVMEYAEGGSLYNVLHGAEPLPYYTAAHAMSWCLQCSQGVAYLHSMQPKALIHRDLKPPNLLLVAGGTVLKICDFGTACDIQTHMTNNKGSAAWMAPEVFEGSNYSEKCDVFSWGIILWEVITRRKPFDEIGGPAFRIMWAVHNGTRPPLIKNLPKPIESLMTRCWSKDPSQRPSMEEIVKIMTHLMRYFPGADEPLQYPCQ
measurementKind: IC50

// fetch TAK1 (Homo sapiens (Human), UniProt O43318) IC50 for c1ccc(-c2cccc3nc(-c4cncnc4)nc(NCc4ccccn4)c23)cc1 [Example 1]
≥ 50 µM

###

# targetEntity: IGF1R (Homo sapiens (Human))
# Sequence (P08069 31-1367, species assumed): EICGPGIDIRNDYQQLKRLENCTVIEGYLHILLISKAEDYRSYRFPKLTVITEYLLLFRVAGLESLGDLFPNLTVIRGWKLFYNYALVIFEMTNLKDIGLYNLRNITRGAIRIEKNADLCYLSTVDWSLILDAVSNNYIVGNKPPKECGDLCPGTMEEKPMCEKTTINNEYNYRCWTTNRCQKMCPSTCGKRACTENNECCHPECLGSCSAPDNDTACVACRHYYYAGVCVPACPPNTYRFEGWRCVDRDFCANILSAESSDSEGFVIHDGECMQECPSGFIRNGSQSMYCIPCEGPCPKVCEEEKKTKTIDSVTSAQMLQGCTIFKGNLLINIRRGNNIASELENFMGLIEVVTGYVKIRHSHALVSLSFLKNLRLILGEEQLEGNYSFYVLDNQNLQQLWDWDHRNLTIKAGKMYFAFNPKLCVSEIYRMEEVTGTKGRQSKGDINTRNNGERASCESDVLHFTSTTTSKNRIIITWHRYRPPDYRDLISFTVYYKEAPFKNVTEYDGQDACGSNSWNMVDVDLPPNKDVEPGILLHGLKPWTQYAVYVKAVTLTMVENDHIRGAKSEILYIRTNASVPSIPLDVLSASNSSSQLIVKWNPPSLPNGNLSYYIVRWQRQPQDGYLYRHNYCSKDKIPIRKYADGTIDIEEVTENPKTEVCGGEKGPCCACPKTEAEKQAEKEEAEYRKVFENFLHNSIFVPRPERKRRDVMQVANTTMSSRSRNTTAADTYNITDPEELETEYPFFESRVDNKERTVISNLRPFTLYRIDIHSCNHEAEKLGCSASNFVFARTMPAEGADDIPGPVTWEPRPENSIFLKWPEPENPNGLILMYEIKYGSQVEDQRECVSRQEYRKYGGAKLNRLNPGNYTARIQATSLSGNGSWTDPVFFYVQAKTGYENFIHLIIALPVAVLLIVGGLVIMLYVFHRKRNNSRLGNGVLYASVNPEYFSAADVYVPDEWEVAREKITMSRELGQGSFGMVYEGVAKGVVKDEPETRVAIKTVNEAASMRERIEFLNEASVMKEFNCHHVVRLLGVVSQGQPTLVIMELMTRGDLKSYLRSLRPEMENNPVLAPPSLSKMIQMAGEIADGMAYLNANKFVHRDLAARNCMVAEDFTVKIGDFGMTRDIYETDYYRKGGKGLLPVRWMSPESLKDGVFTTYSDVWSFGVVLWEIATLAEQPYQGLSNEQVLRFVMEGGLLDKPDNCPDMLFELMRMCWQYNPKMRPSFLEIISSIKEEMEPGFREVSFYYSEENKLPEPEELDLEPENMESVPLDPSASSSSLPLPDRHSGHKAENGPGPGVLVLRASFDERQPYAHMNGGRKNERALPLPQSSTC
# protocolText: Caliper Kinase Assay
# Type: biochemical
# setupConditions: ATP at Km, peptide 1.5 uM; first section of Table 4; read-out: LLE IGF1R (IC50)
measurementKind: IC50 (µM)
Reply with just the number (in µM).

Form field: reported IC50 of Clc1nc(NCc2ccccn2)c2c(-c3ccccc3)cccc2n1
17.6

###

# targetEntity: UniProt:P49841
# Sequence (P49841 whole entry, species assumed): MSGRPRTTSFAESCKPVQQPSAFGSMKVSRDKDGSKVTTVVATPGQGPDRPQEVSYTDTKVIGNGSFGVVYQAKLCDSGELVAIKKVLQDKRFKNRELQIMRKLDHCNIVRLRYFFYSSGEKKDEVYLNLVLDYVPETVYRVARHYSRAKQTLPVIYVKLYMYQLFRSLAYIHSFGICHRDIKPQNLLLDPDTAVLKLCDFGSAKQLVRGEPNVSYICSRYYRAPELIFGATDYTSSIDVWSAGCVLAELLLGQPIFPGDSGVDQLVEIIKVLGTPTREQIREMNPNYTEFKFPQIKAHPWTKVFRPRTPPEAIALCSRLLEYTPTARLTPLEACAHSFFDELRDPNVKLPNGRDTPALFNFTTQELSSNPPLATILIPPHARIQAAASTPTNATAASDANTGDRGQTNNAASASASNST
measurementKind: IC50 (µM)
Reply with just the number (in µM).

Form field: reported IC50 of Clc1nc(NCc2ccccn2)c2c(-c3ccccc3)cccc2n1 [Example 19]
5.15

###

# targetEntity: Kv 1.5 (Homo sapiens (Human), UniProt P22460)
# Sequence (P22460 whole entry): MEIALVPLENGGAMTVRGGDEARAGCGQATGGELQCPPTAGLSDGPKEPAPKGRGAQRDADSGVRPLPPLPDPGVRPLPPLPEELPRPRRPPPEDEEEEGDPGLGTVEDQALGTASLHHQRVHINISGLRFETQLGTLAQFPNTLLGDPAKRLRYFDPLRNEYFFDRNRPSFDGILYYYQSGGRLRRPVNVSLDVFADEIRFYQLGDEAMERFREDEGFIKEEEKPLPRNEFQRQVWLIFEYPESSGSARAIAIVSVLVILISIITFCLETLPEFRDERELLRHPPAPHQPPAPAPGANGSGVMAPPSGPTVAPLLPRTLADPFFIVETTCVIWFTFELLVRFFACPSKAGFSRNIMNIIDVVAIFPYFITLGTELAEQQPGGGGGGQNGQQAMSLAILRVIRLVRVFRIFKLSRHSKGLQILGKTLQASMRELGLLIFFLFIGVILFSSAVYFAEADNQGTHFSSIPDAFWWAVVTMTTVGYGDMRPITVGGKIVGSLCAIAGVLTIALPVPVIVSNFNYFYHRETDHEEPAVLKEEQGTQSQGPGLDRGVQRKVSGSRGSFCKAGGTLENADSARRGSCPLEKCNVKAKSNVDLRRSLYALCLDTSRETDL
# protocolText: Kv1.5 (IKur) inhibition assay
# Type: cell-based
measurementKind: inhibition at 0.3 µM (%)
Reply with just the number (in %).

// worked examples, inhibition at 0.3 µM included
COc1cncc(-c2nc(NCc3ccccn3)c3c(-c4ccccc4)cccc3n2)c1 :: 65.3
c1ccc(-c2nc(NCc3ccccn3)c3c(-c4ccccc4)cccc3n2)cc1 :: 96.1
c1ccc(-c2cccc3nc(-c4ccc5cc[nH]c5c4)nc(NCc4ccccn4)c23)cc1 :: 98.7

Form field: reported inhibition at 0.3 µM of NS(=O)(=O)c1cncc(-c2nc(NCc3ccccn3)c3c(-c4ccccc4)cccc3n2)c1
95.7

###

# targetEntity: IGF1R (Homo sapiens (Human))
# protocolText: Caliper Kinase Assay
# Type: biochemical
# setupConditions: ATP at Km, peptide 1.5 uM; second section of Table 4; read-out: LLE_IGF1R (IC50)
measurementKind: pIC50
// pIC50: -log10(molar conc.)

Form field: reported pIC50 of Clc1nc(NCc2ccccn2)c2c(-c3ccccc3)cccc2n1
4.75

###

// reported inhibition at 0.3 µM for each item listed
# targetEntity: Kv 1.5 (Homo sapiens (Human), UniProt P22460)
# protocolText: Kv1.5 (IKur) inhibition assay
# Format: cell-based
Returns: string containing the numeric result and its unit.

Fc1ccc(CNc2nc(-c3cncnc3)nc3cccc(-c4ccccc4)c23)nc1 [Example 111] :: 61.5%
Cc1nc(NCc2ccccn2)c2c(-c3ccccc3)cccc2n1 [Example 22] :: 60.4%
Nc1ccc(-c2nc(NCc3ccccn3)c3c(-c4ccccc4)cccc3n2)cn1 [Example 32] :: 53.1%
COc1cccc(CNc2nc(Cl)nc3cccc(-c4ccccc4)c23)c1 [Example 134] :: 98.4%

Query compound follows.
Form field: reported inhibition at 0.3 µM of c1ccc(-c2cccc3nc(-c4ccncc4)nc(NCc4ccccn4)c23)cc1 [Example 31]
98.2%

This collection of values is drawn from patent US10214511B2.
